Target: IRAK4 (Homo sapiens (Human), UniProt Q9NWZ3)
Experiment: IRAK4 Biochemical HTRF Kinase Assay
Settings: Table 4; read-out: IRAK4 HTRF biochemical: IC50
Sequence (Q9NWZ3 whole entry, species assumed): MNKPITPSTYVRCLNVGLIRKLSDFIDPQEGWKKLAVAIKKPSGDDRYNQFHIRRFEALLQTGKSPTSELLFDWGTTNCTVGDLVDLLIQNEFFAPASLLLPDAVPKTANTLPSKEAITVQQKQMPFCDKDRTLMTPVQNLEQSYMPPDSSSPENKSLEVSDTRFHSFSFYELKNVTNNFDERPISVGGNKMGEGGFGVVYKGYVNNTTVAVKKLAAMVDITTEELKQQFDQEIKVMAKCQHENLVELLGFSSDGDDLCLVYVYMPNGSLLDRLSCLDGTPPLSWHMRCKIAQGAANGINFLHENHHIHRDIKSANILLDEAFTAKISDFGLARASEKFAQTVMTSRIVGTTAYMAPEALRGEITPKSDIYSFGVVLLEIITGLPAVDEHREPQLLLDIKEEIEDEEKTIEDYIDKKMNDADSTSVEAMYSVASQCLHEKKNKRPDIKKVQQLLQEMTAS
For each record, write down the corresponding pIC50.
Answers are plain numbers, as −log10 of the molar value.

{"columns": ["compound", "pIC50"],
 "data": [
  ["CC(C)Nc1cc(-c2ccc3cc(C#N)cnn23)ncc1-c1nnc(N2CCN(C3CCN(C[C@H]4CCN(c5ccc6c(c5)C(=O)N(C5CCC(=O)NC5=O)C6=O)C4)CC3)CC2)s1 (some centres unmarked)", 8.85],
  ["CC(C)Nc1cc(-c2ccc3cc(C#N)cnn23)ncc1-c1nnc(N2CCN(Cc3ccc4c(c3)C(=O)N(C3CCC(=O)NC3=O)C4=O)CC2)s1 (centres unmarked)", 8.70],
  ["CC(C)Nc1cc(-c2ccc3cc(C#N)cnn23)ncc1-c1nnc(N2CCN(C(=O)C3CCN(c4ccc5c(c4)C(=O)N(C4CCC(=O)NC4=O)C5=O)CC3)CC2)s1 (centres unmarked)", 8.82]
]}

Each compound below has a reported value. Please supply its pIC50.
1. Cc1ncsc1-c1ccc([C@H](C)NC(=O)[C@@H]2C[C@@H](O)CN2C(=O)[C@@H](NC(=O)CCC(=O)N2CCN(c3nnc(-c4cnc(-c5ccc6cc(C#N)cnn56)cc4NC(C)C)s3)CC2)C(C)(C)C)cc1
2. CN[C@@H](C)C(=O)N[C@H](C(=O)N1C[C@@H](NC(=O)CCCCC(=O)N2CCN(c3nnc(-c4cnc(-c5ccc6cc(C#N)cnn56)cc4NC(C)C)s3)CC2)C[C@H]1C(=O)N[C@@H]1CCCc2ccccc21)C1CCCCC1

1: 8.44; 2: 8.70

* * *

Target: IRAK4 (Homo sapiens (Human), UniProt Q9NWZ3)
Assay: IRAK4 Degradation HiBiT Assay
Settings: Jurkat, read-out: Cellular IRAK4 HiBiT: Dmax, Table 5; multiple runs; HiBiT-tagged Jurkat cells, 4 hrs
Sequence (Q9NWZ3 whole entry): as the sequence (Q9NWZ3 whole entry, species assumed) above
Provide the reported Dmax of each item.
Answers are plain numbers, in %.

Worked set:
{"columns": ["compound", "Dmax / %"],
 "data": [
  ["CNc1cc(-c2ccc3cc(C#N)cnn23)ncc1-c1nnc(C2CCC(NC(=O)Cn3ccc(C(=O)N[C@H](C(=O)N4C[C@H](O)C[C@H]4C(=O)N[C@@H](C)c4ccc(-c5scnc5C)cc4)C(C)(C)C)n3)CC2)s1 (some centres unmarked) [Example 125]", 116],
  ["CNc1cc(-c2ccc3cc(C#N)cnn23)ncc1-c1nnc([C@H]2CC[C@@H](NC(=O)CCCCCCCNc3ccc4c(c3)C(=O)N(C3CCC(=O)NC3=O)C4=O)CC2)s1 (some centres unmarked) [Example 112]", 57],
  ["CNc1cc(-c2ccc3cc(C#N)cnn23)ncc1-c1nnc(C23CCC(NC(=O)CCCC(=O)N[C@H](C(=O)N4C[C@H](O)C[C@H]4C(=O)NCc4ccc(-c5scnc5C)cc4)C(C)(C)C)(CC2)CC3)s1 [Example 141]", 133],
  ["CNc1cc(-c2ccc3cc(C#N)cnn23)ncc1-c1nnc([C@H]2CC[C@H](N(C)C(=O)CN3CCN(c4ccc5c(c4)C(=O)N(C4CCC(=O)NC4=O)C5=O)CC3)CC2)s1 (some centres unmarked) [Example 137]", 108]
]}

Field: next compound
Form field: reported Dmax of Cc1ncsc1-c1ccc([C@H](C)NC(=O)[C@@H]2C[C@@H](O)CN2C(=O)[C@@H](NC(=O)CCOCCOCCOCCC(=O)N2CCN(c3nnc(-c4cnc(-c5ccc6cc(C#N)cnn56)cc4NC(C)C)s3)CC2)C(C)(C)C)cc1 [Example 78]
74

* * *

Biological target: UniProt Q9NWZ3
Test: IRAK4 Degradation HiBiT Assay
Conditions: Jurkat, read-out: Cellular IRAK4 HiBiT: Dmax, Table 5; multiple runs; HiBiT-tagged Jurkat cells, 4 hrs
observable: Dmax (%)
Answers are plain numbers, in %.

{"columns": ["compound", "value_reported"],
 "data": [
  ["CNc1cc(-c2ccc3cc(C#N)cnn23)ncc1-c1nnc([C@H]2CC[C@H](NC(=O)CN3CCN(c4ccc5c(c4)C(=O)N(C4CCC(=O)NC4=O)C5=O)CC3)CC2)s1 (some centres unmarked)", 111],
  ["CN[C@@H](C)C(=O)N[C@H](C(=O)N1C[C@@H](NC(=O)CCCCCCCCCCC(=O)N2CCN(c3nnc(-c4cnc(-c5ccc6cc(C#N)cnn56)cc4NC(C)C)s3)CC2)C[C@H]1C(=O)N[C@@H]1CCCc2ccccc21)C1CCCCC1", 82],
  ["CNc1cc(-c2ccc3cc(C#N)cnn23)ncc1-c1nnc(N2CC3(CCN(CC4CCN(c5ccc(C(=O)NC6CCC(=O)NC6=O)cc5)CC4)CC3)C2)s1 (centres unmarked)", 120],
  ["CC(C)Nc1cc(-c2ccc3cc(C#N)cnn23)ncc1-c1nnc(N2CCN(Cc3ccc4c(c3)C(=O)N(C3CCC(=O)NC3=O)C4=O)CC2)s1 (centres unmarked)", 29]
]}

Continue with the compound presented below.
Name the recorded Dmax for CNc1cc(-c2ccc3cc(C#N)cnn23)ncc1-c1nnc(N2CCN(C(=O)C[C@H](NC(=O)[C@@H]3C[C@@H](O)CN3C(=O)[C@@H](NC(=O)C3(F)CC3)C(C)(C)C)c3ccc(-c4scnc4C)cc3)CC2)s1 .
97

* * *

Target: IRAK4 (Homo sapiens (Human), UniProt Q9NWZ3)
Test: IRAK4 Biochemical HTRF Kinase Assay
Conditions: Table 5; multiple runs; read-out: IRAK4 HTRF biochemical: IC50
For each of the compounds below, state its pIC50.
One number for each entry, as −log10 of the molar value.

Known pIC50 results, listed for orientation:
{"columns": ["compound", "observable", "value_reported"],
 "data": [
  ["CNc1cc(-c2ccc3cc(C#N)cnn23)ncc1-c1nnc([C@H]2CC[C@H](NC(=O)CCC(=O)N[C@H](C(=O)N3C[C@H](O)C[C@H]3C(=O)N[C@@H](C)c3ccccc3)C(C)(C)C)CC2)s1", "pIC50", 9.40],
  ["CNc1cc(-c2ccc3cc(C#N)cnn23)ncc1-c1nnc([C@H]2CC[C@H](NC(=O)CCCCC(=O)N[C@H](C(=O)N3C[C@H](O)C[C@H]3C(=O)N[C@@H](C)c3ccc(-c4scnc4C)cc3)C(C)(C)C)CC2)s1", "pIC50", 8.54],
  ["N#Cc1cnn2c(-c3cc(NC4CCOCC4)c(-c4nnc(C56CCC(NC(=O)CCOCCOCCNc7cccc8c7C(=O)N(C7CCC(=O)NC7=O)C8=O)(CC5)CC6)s4)cn3)ccc2c1 (stereo not drawn)", "pIC50", 8.70],
  ["CNc1cc(-c2ccc3cc(C#N)cnn23)ncc1-c1nnc([C@H]2CC[C@H](NC(=O)CCC(=O)N[C@H](C(=O)N3C[C@@H](O)C[C@H]3C(=O)NCc3ccc(-c4scnc4C)cc3)C(C)(C)C)CC2)s1", "pIC50", 9.05],
  ["Cc1ncsc1-c1ccc(CNC(=O)[C@@H]2C[C@@H](O)CN2C(=O)[C@@H](NC(=O)C2(F)CC2)C(C)(C)C)c(OCCCCCCCC(=O)N2CCN(c3nnc(-c4cnc(-c5ccc6cc(C#N)cnn56)cc4NC(C)C)s3)CC2)c1", "pIC50", 7.62],
  ["CNc1cc(-c2ccc3cc(C#N)cnn23)ncc1-c1nnc(N2CCN(C3CCN(C(=O)Cc4ccc5c(c4)CN(C4CCC(=O)NC4=O)C5=O)CC3)CC2)s1 (stereo not drawn)", "pIC50", 9.40]
]}

Items follow; give pIC50 for each.
1. CNc1cc(-c2ccc3cc(C#N)cnn23)ncc1-c1nnc([C@H]2CC[C@H](NC(=O)C34CC(C(=O)N[C@H](C(=O)N5C[C@H](O)C[C@H]5C(=O)N[C@@H](C)c5ccc(-c6scnc6C)cc5)C(C)(C)C)(C3)C4)CC2)s1
2. CN[C@@H](C)C(=O)N[C@H](C(=O)N1CCC[C@H]1c1nc(C(=O)c2cccc(OCCOCCC(=O)N3CCN(c4nnc(-c5cnc(-c6ccc7cc(C#N)cnn67)cc5NC(C)C)s4)CC3)c2)cs1)C1CCCCC1
3. CNc1cc(-c2ccc3cc(C#N)cnn23)ncc1-c1nnc([C@H]2CC[C@H](NC(=O)CCOCCNc3cccc4c3C(=O)N(C3CCC(=O)NC3=O)C4=O)CC2)s1 (stereo partly drawn)

[8.62, 8.49, 9.10]

* * *

Biological target: IRAK4 (Homo sapiens (Human))
Assay: IRAK4 Degradation HiBiT Assay
Settings: read-out: Cellular IRAK4 HiBiT: DC50; Table 4; HiBiT-tagged Jurkat cells, 4 hrs
observable: DC50 (nM)
Answers are plain numbers, in nM.

// solved cases for DC50 follow
{"columns": ["compound", "units_symbol", "DC50"],
 "data": [
  ["CNc1cc(-c2ccc3cc(C#N)cnn23)ncc1-c1nnc([C@H]2CC[C@H](NC(=O)CCCCCOc3cc(-c4scnc4C)ccc3CNC(=O)[C@@H]3C[C@@H](O)CN3C(=O)[C@@H](NC(=O)C3(F)CC3)C(C)(C)C)CC2)s1", "nM", 159],
  ["CC(C)Nc1cc(-c2ccc3cc(C#N)cnn23)ncc1-c1nnc(N2CCN(C(=O)CCN3CCN(c4ccc5c(c4)C(=O)N(C4CCC(=O)NC4=O)C5=O)CC3)CC2)s1 (stereo not shown)", "nM", 42.7],
  ["CNc1cc(-c2ccc3cc(C#N)cnn23)ncc1-c1nnc([C@H]2CC[C@H](NC(=O)CCCCCNc3ccc4c(c3)C(=O)N(C3CCC(=O)NC3=O)C4=O)CC2)s1 (stereo partly shown)", "nM", 47.5],
  ["CC(C)Nc1cc(-c2ccc3cc(C#N)cnn23)ncc1-c1nnc(N2CCN(CCCc3cccc4c3CN(C3CCC(=O)NC3=O)C4=O)CC2)s1 (stereo not shown)", "nM", 135],
  ["Cc1ncsc1-c1ccc([C@H](C)NC(=O)[C@@H]2C[C@@H](O)CN2C(=O)[C@@H](NC(=O)CCC(=O)N2CCN(c3nnc(-c4cnc(-c5ccc6cc(C#N)cnn56)cc4NC(C)C)s3)CC2)C(C)(C)C)cc1", "nM", 420]
]}

Could you tell me DC50 for each of these compounds? They are listed below.
1. CC(C)Nc1cc(-c2ccc3cc(C#N)cnn23)ncc1-c1nnc(N2CCN(C(=O)CCOCCOCCOCCNc3cccc4c3C(=O)N(C3CCC(=O)NC3=O)C4=O)CC2)s1 (stereo not shown)
2. CC(C)Nc1cc(-c2ccc3cc(C#N)cnn23)ncc1-c1nnc(N2CCN(C3CCN(C[C@H]4CCN(c5ccc6c(c5)C(=O)N(C5CCC(=O)NC5=O)C6=O)C4)CC3)CC2)s1 (stereo partly shown)
3. Cc1ncsc1-c1ccc(CNC(=O)[C@@H]2C[C@@H](O)CN2C(=O)C(NC(=O)[C@H]2CC[C@H](C(=O)N3CCN(c4nnc(-c5cnc(-c6ccc7cc(C#N)cnn67)cc5NC(C)C)s4)CC3)CC2)C(C)(C)C)cc1 (stereo partly shown)
4. N#Cc1cnn2c(-c3cc(NC4CCOCC4)c(-c4nnc(C56CCC(NC(=O)CCOCCOCCNc7cccc8c7C(=O)N(C7CCC(=O)NC7=O)C8=O)(CC5)CC6)s4)cn3)ccc2c1 (stereo not shown)
5. Cc1ncsc1-c1ccc(CNC(=O)[C@@H]2C[C@@H](O)CN2C(=O)[C@@H](NC(=O)C2(F)CC2)C(C)(C)C)c(OCCOCCOCCOCCOCCOCCC(=O)N2CCN(c3nnc(-c4cnc(-c5ccc6cc(C#N)cnn56)cc4NC(C)C)s3)CC2)c1
6. Cc1ncsc1-c1ccc([C@H](C)NC(=O)[C@@H]2C[C@@H](O)CN2C(=O)[C@@H](NC(=O)CCOCCOCCOCCOCCOCCC(=O)N2CCN(c3nnc(-c4cnc(-c5ccc6cc(C#N)cnn56)cc4NC(C)C)s3)CC2)C(C)(C)C)cc1
7. CC(C)Nc1cc(-c2ccc3cc(C#N)cnn23)ncc1-c1nnc(N2CCN(C3CCN(Cc4ccc5c(c4)C(=O)N(C4CCC(=O)NC4=O)C5=O)CC3)CC2)s1 (stereo not shown)

1: 128; 2: 139; 3: 4330; 4: 23.8; 5: 691; 6: 872; 7: 123
